Where these numbers come from: patent US20100278929A1

tested.on: RSV (Long strain) F protein on infectious virus (respiratory syncytial virus (Long strain)) (UniProt P12568)
Sequence (P12568 26-574): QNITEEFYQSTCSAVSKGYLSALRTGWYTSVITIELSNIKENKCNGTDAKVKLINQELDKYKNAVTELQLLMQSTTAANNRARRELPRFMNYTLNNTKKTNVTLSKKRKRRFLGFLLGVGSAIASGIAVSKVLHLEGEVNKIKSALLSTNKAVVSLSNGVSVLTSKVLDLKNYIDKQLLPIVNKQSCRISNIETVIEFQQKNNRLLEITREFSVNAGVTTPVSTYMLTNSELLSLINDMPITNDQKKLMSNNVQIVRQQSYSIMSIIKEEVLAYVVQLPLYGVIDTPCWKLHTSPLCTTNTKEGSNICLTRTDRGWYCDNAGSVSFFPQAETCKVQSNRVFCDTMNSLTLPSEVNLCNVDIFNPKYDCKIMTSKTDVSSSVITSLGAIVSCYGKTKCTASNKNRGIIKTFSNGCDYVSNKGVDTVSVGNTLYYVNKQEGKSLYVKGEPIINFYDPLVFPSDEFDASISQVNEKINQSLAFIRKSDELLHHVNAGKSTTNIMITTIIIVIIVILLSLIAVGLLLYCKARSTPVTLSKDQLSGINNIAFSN
test.description: cell-based or functional assay
endpoint: Fold Difference (Curve IC50), against palivizumab (fold)
Write it as a number; the unit fold goes unstated.

binder	test.value
A1e9 monoclonal antibody (antibody, V domains shown) VH: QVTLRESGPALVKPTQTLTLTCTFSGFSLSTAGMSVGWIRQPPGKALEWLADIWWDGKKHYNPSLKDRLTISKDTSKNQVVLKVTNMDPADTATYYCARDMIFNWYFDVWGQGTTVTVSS VL: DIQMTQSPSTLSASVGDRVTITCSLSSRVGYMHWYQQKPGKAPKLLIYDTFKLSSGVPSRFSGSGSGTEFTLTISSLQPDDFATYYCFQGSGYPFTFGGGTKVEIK	7
P12f4 monoclonal antibody (antibody, V domains shown) VH: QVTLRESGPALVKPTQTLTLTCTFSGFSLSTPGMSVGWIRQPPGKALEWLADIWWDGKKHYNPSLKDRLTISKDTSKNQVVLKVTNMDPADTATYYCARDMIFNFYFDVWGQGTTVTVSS VL: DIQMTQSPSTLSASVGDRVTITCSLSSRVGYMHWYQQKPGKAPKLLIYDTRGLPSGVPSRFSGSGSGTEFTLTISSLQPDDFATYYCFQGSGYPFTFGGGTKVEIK	19

Please look up its Fold Difference (Curve IC50), against palivizumab: A4B4 Fab fragment (Fab, V domains shown) VH: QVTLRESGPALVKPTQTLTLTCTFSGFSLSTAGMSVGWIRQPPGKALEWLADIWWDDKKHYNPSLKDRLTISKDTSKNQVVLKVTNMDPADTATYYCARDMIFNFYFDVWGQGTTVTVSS VL: DIQMTQSPSTLSASVGDRVTITCSASSRVGYMHWYQQKPGKAPKLLIYDTFFLDSGVPSRFSGSGSGTEFTLTISSLQPDDFATYYCFQGSGYPFTFGGGTKVEIK
11
